test: yeast display, Sf9 membrane polyspecificity reagent, FACS + sequencing; frameworks hold sequencing errors
property-name: polyreactivity (PSR sort gate)

sequence-data	experimental-result
QVQLVESGGGLVQAGGSLRLSCAASGRTFYRYTMGWYRQAPAKERELVAAISWSGGSTYYADSVKGRFTISRDNAKNTVYLQMNSLKPEDTAVNYCAKATYWLYVQWYTYGYWGQGTQVTVSS	high polyreactivity
QVQLVESGGGLVQAGGSLRLSSAASGRIFQRYAMGCYRQAPGKERELVAAISGSGGRTYYADSVKGRFTISRDNAKNTVYLQLNSLKPDDSAVYYCAAYPSYYADSGLRYDYWGQGTQVTVSS	high polyreactivity

====

assay: yeast display, Sf9 membrane polyspecificity reagent, FACS + sequencing; frameworks hold sequencing errors

sequence-data	polyreactivity (PSR sort gate)
QVQLVESGGGLVQAGGSLRKSCAASGRIFGINAMGWSRQAPGNERELVAAITWGVGSTYYADSVKGRFTISRDNAKNTVYLQMNSLKPEDTAVYYCAKRRYYGYGGDYWGQGTQVTVSS	high polyreactivity
QVQLVESGGGLVQAGGSLRLSCAASGRIFFDYDMGWYRPAPGKERELVAAISSSGDSTYYADSVKGRFTISRDNAKNTVYLQMNSLKPEDTAVYYCNAKSVPVNYVAIKYDYWGQGTQVTVSS	high polyreactivity

====

experiment: yeast display, Sf9 membrane polyspecificity reagent, FACS + sequencing; frameworks hold sequencing errors
property-name: polyreactivity (PSR sort gate)

sequence-data	property-name	experimental-result
QVQLVESGGGLVQAGGSLRLSCAASGSTFSQNAMGWYRQAPGKERELVDAITSGGITYYADSVKGRFTISRDNAKNTVYLQMNSLKPEDTAVYYCNADAIVSPYRLWTVTYYYWGQGTQVTVSS	polyreactivity (PSR sort gate)	low polyreactivity
QVQLVESGGGLVQAGGSLRLSCASSARIFFWYTMGWYSQAPGKERELVAAITSSGNTNYADSVKGRFTISRDNAKNTVYLQMNSLKPEDTAVYYCATGSYSYYSLFDYWGQGTQVTVSS	polyreactivity (PSR sort gate)	low polyreactivity

====

assay: yeast display, Sf9 membrane polyspecificity reagent, FACS + sequencing; frameworks hold sequencing errors
property-name: polyreactivity (PSR sort gate)

Observe how each entry below is paired with its result.
sequence-data	polyreactivity (PSR sort gate)
QVQLVESGGGLVQAGGSLRLSCAASGRIFVIYGRGWYRPAPGKERELVATISWSGSSTSYADSVKGRFTISRDNAKNTVYLQMNSLKPEDTAVYYCAAYTWYSRHRMNYWGQGTQVTVSS	high polyreactivity
QVQLVESGGGLVQAGGSLRLSCAASGYTFPLYAMGWYRQAPGKERELVADINIGGASTYYADSVKGRFTISRDNAKNTVYLQKNSLKPEDTAVYYCAKEYYDGYFPTFDSDYWGQGTQVTVSS	low polyreactivity
QVQLVESGGGLVQAGGSLRLSCAASGFIFTRYAMGWYRQAPGKERELVAAISGTGGSTYYADSVKGRFTISRDNSKNTFFLQMNSLKPEDTAVYYCAAGYFVYLKYGYWGQGTKVTVSS	high polyreactivity
QVQLGESGGVLVQAGGSLRLSCSASGSTFYSNAMGWYRQAPVKEREFVAAITGSGGSTYYADSVKGRFTISRDNAQNTVYLQMNSLKPEVTAVYYCAAGTRIYNSWIRFDYWGQGTQVTVSS	high polyreactivity
QFQLVESGGALVQAGGSLRLSCAASGLIFGRYAMGWYRQAPGNERELVAAISWRGGSTFYADSVKGRFTISRDNAKNTVYLQMNSLKPEDTAVYYCNARYYPARVRTYDHWGQGTQVTVSS	high polyreactivity

# batch: return polyreactivity (PSR sort gate) for each of the 3 sequences below
1. QVQLVESGGGLVQAGGSLRLSCAASGRILFGYAMGWYRQAPGKERELVADITSTGSTNYADSVKGRFTISRDNAKNTVYLQMNSLKPEDTAVYYCNARRESYYQRYRVDYWGQGTQVTVSS
2. QDQLVESGGGLVQAGGSLRLSCAASGSTFRRYAIGWYRQAPGKERELVAAITSGGRTNYADSVKGRFTISRDNAKNTVYLQMNSLKPEDTAVYYCNAKAYKLGQSYWGYDYWGQGTQVTVSS
3. QVQLVESGGGLVQAGGSLRLSCAASGSIFDWYVMGWYRQAPGKERELVAAITSGGSTNYADSVKGRFTISRDNAKNTVYLQMNSLKPEDTAVYFCAADTVSFSILYDYWGQGTQVTVSS

[out]
1: low polyreactivity; 2: high polyreactivity; 3: low polyreactivity

# batch: return polyreactivity (PSR sort gate) for each of the 3 sequences below
1. QVQLVESGGGLVQAGGSLRLSCAASGNTFIEYAMGWYRQAPGKERELVAAINWNGGSTYYADSVKGRFTISRDNAKNTVYLQMNSLKPEDTAVYYCYADYPQYWDYRTSDYTYGTYNYWGQGTQVTVSS
2. QVQLVESGGGLVQAGGSLRLSCAASGSILYTNAMGWYRQAPGKERELVAAITTSGASTYYADSVKGRFTISRDNAKNTVYLQMNSLKPEDTAVYYCAATDYFPYDTYYAHDYWGQGTQVTVSS
3. QVQLVESGGGLVQAGGSLRLSCAAYGSTLLTYTMGWYRQAPGKERELVASITTSGGSTYYADSVKGRFTISRDNAKNTVYLQMNSLKPEDTAVYYWGQGTQVTVSS

[out]
1: low polyreactivity; 2: high polyreactivity; 3: low polyreactivity

====

assay: yeast display, Sf9 membrane polyspecificity reagent, FACS + sequencing; frameworks hold sequencing errors
property-name: polyreactivity (PSR sort gate)

Observe how each entry below is paired with its result.
sequence-data	polyreactivity (PSR sort gate)
QVQLVESGGGLVQAGGSLRLSCAASGSTLDPNVMGWYRQAPGKEREWVAAITTGGSTYYADSVKGRFTFSRDNAKNTVYLQLYSLKPEDTAFYYCNKDIGWLAHSRIWLWYDYWGQGTQVTVAS	low polyreactivity
QVQLVESGGGLVQAGGSLRLSCAASGYIFKYNAMGWYRQAPGKERELVATIRGGGSTNYADSVKGRFTISRDNAKNTVYLQMNSLKPEDTAVYYCAAVQRYEYGYWGQGTQVTVSS	high polyreactivity
QVQLVESGGGLVQAGGSLRLSCAASGSTFVQYAMGWYRQAPGKERELVAAITSGGRTNYADSVKGRFTISRDNAKNTVYLQMNSLKPEDTAVYYCAARYGSNSPRGYEYYYWGQGTQVTVSS	low polyreactivity
QVQLVESGGGLVQAGGSLRLRCAASGGIFTNNAKGWYRQAPGKERELVAAITGSGASTYYADSVKARFTISRDNAKNSVYLHLNSLKPEDTAVYYCNTDSPYGWEGEFDYWGLGTQVTVSS	high polyreactivity

The reported polyreactivity (PSR sort gate) of the sequence "QVQLVESWGGLVQAGGSLRLSCAASGRIFGRYAMGWYRQAPGKERELVAAIRSTGSTNYADSVKGRFTISRDNAKNTVYLQMNSLKPEDTAVYYCAAYRRRTYAVNKEGGYWGQGTQVTVSS" was high polyreactivity

====

test: yeast display, Sf9 membrane polyspecificity reagent, FACS + sequencing; frameworks hold sequencing errors
property-name: polyreactivity (PSR sort gate)

Observe how each entry below is paired with its result.
sequence-data	polyreactivity (PSR sort gate)
QVQLVESVGGLVQAGGSLRLSCAASGFNFSAYAMGGYRQAPGKESELVAAISWSGSRTYYADSVKGRFTISRDNAKNTVYLQMNSLKPEDTAVFYCAKEPYDTFGFYEYDYWGQGTQVTVSS	low polyreactivity
QFQLVESGGGLVQAGGSLRLSCAASGRTFVYYVMGWYRPAPGKERELVAAISRRGGSTYYADSVKGRFTISRDNAKNTVYLQMNSLKPEDTAVYYCAAQYYYAREDYWGQGTQVTVSS	high polyreactivity
QVQLVESGGGLVQAGVSLRLSCAASGFTFGRYAMGWYRQAPGKERELVAAISNSGGSTYYADSVKGRFTISRDNAKNTVYLQMNSLKPEATAVYYCAARDSYWSVYYWGQGTQVTVSS	high polyreactivity
QVQLVESGGGLVQAGGSLRLICAASGSIFRLYAMGWYRPAPGKEREFVARIRWRGGSTNYADSVKGRFTISRDNAKNTVYLQMNCLKPVDTAVYYCAAKQGTVRAHTYVAWYDYWGQGTQVTVSS	high polyreactivity
QVQLVESGGGLVQAGGSLRLSCAASGITFGPNAMGWYRQAPGKERELVAAISWRGGSTYYADSVKGRFTISRDNAKNTVYLQMNSLKPEDTAVYYCAKVQIPASYIRYDYWGQGTQVTLSS	low polyreactivity
QVQLVESGGGLVQAGGSLRLSCAAYGSIIVRYAMGWYGQAPGKVRELVPTITFRDTSTYYADSVKGRFTSSRDNAKNTVYLQMNSLKPEDSAVYYCNAHIPTNRSYVPAVRGEDDYWGQGTQVTVSS	low polyreactivity
QVQLVESGGGLVQAGGSLRLSCAASGRTFLTYAMGWYRQAPGKERELVAAISSSGVRTYYADSVKGRFTISRDNAKNTVYLQMNSLKPEDTAVYYCAAVGTGSSLRYDYWGQGSQVTVSS	high polyreactivity
QVQLVESGGGLVQAGGSLRLSCAASGRTFLYYAMGWYRQAPGKERELVAAISSGGSTNYADSVKGRFTISRDNAKNTVYLQMNSLIPEDTAVYDCNADYTSRETSDVIYEYDYWGQATQVTVSS	low polyreactivity

# batch: return polyreactivity (PSR sort gate) for each of the 3 sequences below
1. QVQLVESGGGLVQAGGILRLSCAASGRTFGRNAMGWYRQAQGKERELVAGISIGGGTTYYADSVKGRFTISRDNAKNTVYLQMNSLKPEDTAVYYCAARSWSYLHRYGYWGQGTLVTVSS
2. QVQLVESGGGLVQAGGSLRLSCAASGSIFVTYAMGWYRQAPGKERELVATITSSGGSTYYADSVKGRFTISRDNAKNTVYLQMNSLKPEDTAVYYCATDFGASVWDYFRRVYYWFGYWGQGTQVTVSS
3. QVQLVESGGGLVQAGGSLRLSCAASGRTIKVYAMGWYRQAPGKERELVAAISYSGAGTRYADSVKGRFTISRDNAKNTVYLQMNSLKPEDTAVYYCNTDAWARVKRYEYWGQGTQVTVSS

[out]
1. high polyreactivity
2. low polyreactivity
3. low polyreactivity
